- Tested on: CCRIS mutagenicity, Ames/micronucleus/aberration tests
- TEST_DESCRIPTION: CCRIS mutagenicity studies
- ASSAY_CONDITIONS: Test System: AMES SALMONELLA TYPHIMURIUM; Strain/Indicator: TA98(NR); Metabolic Activation: NONE; Method: PREINCUBATION
Active and inactive are the calls of the source. How the calls were made is not given here.
RECORDED_ENDPOINT: mutagenic call

# annotated cases, reported mutagenic call shown
In [3]: df
Out[3]:
                               input_smiles  recorded_endpoint     endpoint_result
0    Cn1c(N=[N+]=[N-])nc2ncc(-c3ccccc3)cc21     mutagenic call    active; positive
1         O=[N+]([O-])c1ccc2c(c1)sc1ccccc12     mutagenic call    active; positive
2      O=c1oc2ccc([N+](=O)[O-])cc2c2ccccc12     mutagenic call  inactive; negative
3  O=[N+]([O-])c1ccc(Nc2ncnc3c2ncn3-c2ccc([N+](=O)[O-])cc2)cc1     mutagenic call  inactive; negative

Now look at this one.
Which mutagenic call is reported for this molecule? Nc1nc(-c2ccc([N+](=O)[O-])cc2)nc2c1ncn2[C@H]1C[C@H](O)[C@@H](CO)O1
active; positive
